Please respond with reported aptazyme ON/OFF ratio for every item in the list.
B1: Pistol ribozyme (parent)
chain: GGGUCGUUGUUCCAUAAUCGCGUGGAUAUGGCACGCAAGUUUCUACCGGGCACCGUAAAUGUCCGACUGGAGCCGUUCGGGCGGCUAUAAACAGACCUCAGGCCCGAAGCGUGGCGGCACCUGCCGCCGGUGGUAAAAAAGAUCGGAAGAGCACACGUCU

Variants of: B1
test.summary: aptazyme ON/OFF ratio, guanine; higher = stronger switching; co-transcriptional cleavage with and without guanine

INPUT: Specify measured aptazyme ON/OFF ratio for U7G U8C G9A U10A U11G C12G .
OUTPUT: 1.19

INPUT: Specify measured aptazyme ON/OFF ratio for U8G G9U U11A C13G .
OUTPUT: 1.06

INPUT: Specify measured aptazyme ON/OFF ratio for U7G U8G G9C U11C C12U C13U .
OUTPUT: 1.26

INPUT: Specify measured aptazyme ON/OFF ratio for U7A U8A G9C U10C U11A .
OUTPUT: 0.719

INPUT: Specify measured aptazyme ON/OFF ratio for U7G U8C G9C U11C C12U C13U .
OUTPUT: 1.34

INPUT: Specify measured aptazyme ON/OFF ratio for U7C U8G G9C U11G C12A C13U .
OUTPUT: 1.14

INPUT: Specify measured aptazyme ON/OFF ratio for U7A U8G G9U U10G U11G C13U .
OUTPUT: 1.24

INPUT: Specify measured aptazyme ON/OFF ratio for U7C G9A U10A C12A .
OUTPUT: 1.15

INPUT: Specify measured aptazyme ON/OFF ratio for U7C U8C G9C U11C C12A C13U .
OUTPUT: 1.18

INPUT: Specify measured aptazyme ON/OFF ratio for U7G U8G G9C U10C U11C C12A C13U .
OUTPUT: 1.1

INPUT: Specify measured aptazyme ON/OFF ratio for U7G U8A G9U U10A C13A .
OUTPUT: 1.06

INPUT: Specify measured aptazyme ON/OFF ratio for U10A U11G C12G C13A .
OUTPUT: 1.27

INPUT: Specify measured aptazyme ON/OFF ratio for U7G U8C G9A U11G C12G C13U .
OUTPUT: 1.05

INPUT: Specify measured aptazyme ON/OFF ratio for U8A G9C U10C U11A C13G .
OUTPUT: 1.07

INPUT: Specify measured aptazyme ON/OFF ratio for U7G U8G G9U U11A C12U C13A .
OUTPUT: 1.33

INPUT: Specify measured aptazyme ON/OFF ratio for U8C U11A C12G C13A .
OUTPUT: 1.1

INPUT: Specify measured aptazyme ON/OFF ratio for U7C U8A G9A U10C C12A C13G .
OUTPUT: 1.16

INPUT: Specify measured aptazyme ON/OFF ratio for U7G U8G G9U U10C U11A C12G C13U .
OUTPUT: 1.45

INPUT: Specify measured aptazyme ON/OFF ratio for U7C U8G G9A U11A C12G .
OUTPUT: 1.11

INPUT: Specify measured aptazyme ON/OFF ratio for U7A U8G G9A U10G C13U .
OUTPUT: 1.31

INPUT: Specify measured aptazyme ON/OFF ratio for U7A U8C G9C U10G U11A C13G .
OUTPUT: 1.1

INPUT: Specify measured aptazyme ON/OFF ratio for U8C G9U U10A U11C C12U C13G .
OUTPUT: 1.09

INPUT: Specify measured aptazyme ON/OFF ratio for U7A G9U U10C U11A .
OUTPUT: 1.31

INPUT: Specify measured aptazyme ON/OFF ratio for U7C U8C G9C U10G U11C C13A .
OUTPUT: 1.22

INPUT: Specify measured aptazyme ON/OFF ratio for U7A U8G U10G U11A C13A .
OUTPUT: 1.4

INPUT: Specify measured aptazyme ON/OFF ratio for U7A G9U U10C C12G .
OUTPUT: 1.29

INPUT: Specify measured aptazyme ON/OFF ratio for U7G U8A U10A U11G C12U C13U .
OUTPUT: 1.71

INPUT: Specify measured aptazyme ON/OFF ratio for U8A G9C U10A C12A C13G .
OUTPUT: 1.14

INPUT: Specify measured aptazyme ON/OFF ratio for U7C G9A U10G U11G C12U C13A .
OUTPUT: 1.14

INPUT: Specify measured aptazyme ON/OFF ratio for U7G U8G G9C U10A U11G C12A C13U .
OUTPUT: 1.05

INPUT: Specify measured aptazyme ON/OFF ratio for U7G G9C U10A U11G C12A .
OUTPUT: 1.15

INPUT: Specify measured aptazyme ON/OFF ratio for U7G U8G G9U U10G U11A C12A C13A .
OUTPUT: 1.07

INPUT: Specify measured aptazyme ON/OFF ratio for U7G U8G G9A U10G U11C C12U C13G .
OUTPUT: 1.27

INPUT: Specify measured aptazyme ON/OFF ratio for U7C U8C G9A U10A U11G C12U .
OUTPUT: 1.35

INPUT: Specify measured aptazyme ON/OFF ratio for U7G U8G G9A U10G U11G C12A .
OUTPUT: 1.21

INPUT: Specify measured aptazyme ON/OFF ratio for U7G U8G G9U U11C C12G C13U .
OUTPUT: 1.43

INPUT: Specify measured aptazyme ON/OFF ratio for U7G U8A G9C U10A U11G C13G .
OUTPUT: 1.05

INPUT: Specify measured aptazyme ON/OFF ratio for U7G U8G G9U U11C C12U C13A .
OUTPUT: 1.35

INPUT: Specify measured aptazyme ON/OFF ratio for U7C U8A G9A U11C C12G C13A .
OUTPUT: 1.16

INPUT: Specify measured aptazyme ON/OFF ratio for U8A U11G C12U C13G .
OUTPUT: 1.1

INPUT: Specify measured aptazyme ON/OFF ratio for U8G G9U U10C C12A C13U .
OUTPUT: 1.15

INPUT: Specify measured aptazyme ON/OFF ratio for U7A U8A G9C U11C C12A C13G .
OUTPUT: 1.07

INPUT: Specify measured aptazyme ON/OFF ratio for U7G U8A G9C U10G U11C C12A C13G .
OUTPUT: 1.02

INPUT: Specify measured aptazyme ON/OFF ratio for U10C U11G C12G .
OUTPUT: 1.25

INPUT: Specify measured aptazyme ON/OFF ratio for U7A U8G G9A U10C U11A C12G C13A .
OUTPUT: 1.04

INPUT: Specify measured aptazyme ON/OFF ratio for U7G U8G G9A U10G C12U C13A .
OUTPUT: 1.25

INPUT: Specify measured aptazyme ON/OFF ratio for U8A G9U U11G .
OUTPUT: 1.63

INPUT: Specify measured aptazyme ON/OFF ratio for U8A G9C U10G U11C C12U C13A .
OUTPUT: 1.13

INPUT: Specify measured aptazyme ON/OFF ratio for G9U U10A U11G C12G C13U .
OUTPUT: 1.14

INPUT: Specify measured aptazyme ON/OFF ratio for U7A U8G G9C U10C U11C C12G C13G .
OUTPUT: 1.08

INPUT: Specify measured aptazyme ON/OFF ratio for U7C U8A U10G C12G C13A .
OUTPUT: 1.13

INPUT: Specify measured aptazyme ON/OFF ratio for U7A U8G G9C U10A U11G C13U .
OUTPUT: 1.37

INPUT: Specify measured aptazyme ON/OFF ratio for U7G U8G G9A U10A U11G C12A C13A .
OUTPUT: 1.13

INPUT: Specify measured aptazyme ON/OFF ratio for U8C G9A C12U C13G .
OUTPUT: 1.19

INPUT: Specify measured aptazyme ON/OFF ratio for U7G U10C U11A C12A C13G .
OUTPUT: 1.06

INPUT: Specify measured aptazyme ON/OFF ratio for U7A U8G U11C C13U .
OUTPUT: 1.11

INPUT: Specify measured aptazyme ON/OFF ratio for U7A U8C G9C U10G C12A C13A .
OUTPUT: 1.06

INPUT: Specify measured aptazyme ON/OFF ratio for U8G G9C U10C U11G C12A C13U .
OUTPUT: 1.04

INPUT: Specify measured aptazyme ON/OFF ratio for U7C U8G G9U U10C U11C C12G C13A .
OUTPUT: 1.13
